Data credit: patent US20250084161A1

- MEASUREMENT TARGET: T1, E200 peptide
- T1 construct: Made by solid phase synthesis at Chiron Mimotopes; Which form (free, conjugated, biotinylated) was on the chip is told only for some experiments; also called peptide antigen E200; E200-biotin peptide
- EXPERIMENT: Biacore using E200, dAb-Fc
Label t when Kd is strictly below 0.5 nM; otherwise label f.

Request: Lab note: confirm whether the reported Kd for this binder is below 0.5 nM, equality not counting. binder: PEP2-2-2 Fc (Fc fusion, Standard format dAb-Fc with human type IgG1 Fc subtype; also called 2-2-2 (PEP-Fc); not shown: human IgG1 Fc) EVQLLESGGGLVQPGGSLRLSCAASGFTFRNHDMGWVRQAPGKGLEWVSAISGSGGSTYYADSVKGRFTISRDNSKNTLYLQMNSLRAEDTAVYYCAEPKPMDTEFDYRSQGTLVTVSS
Response: t

Request: Lab note: confirm whether the reported Kd for this binder is below 0.5 nM, equality not counting. binder: PEP2-47-1 Fc (Fc fusion, Standard format dAb-Fc with human type IgG1 Fc subtype; also called 2-47-1 (PEP-Fc); not shown: human IgG1 Fc) EVQLLESGGGLVQPGGSLRLSCAASGYTFPMKDMGWVRQAPGKGLEWVSAISGSGGGTYYADSVKGRFTISRDNSKNTLYLQMNSLRAEDTAVYYCAEPSHFDRPFDYRSQGTLVTVSS
Response: t

Request: Lab note: confirm whether the reported Kd for this binder is below 0.5 nM, equality not counting. binder: PEP2-47 Fc (Fc fusion, Standard format dAb-Fc with human type IgG1 Fc subtype; also called 2-47 (PEP-Fc); not shown: human IgG1 Fc) EVQLLESGGGLVQPGGSLRLSCAASGFTFPMKDMGWVRQAPGKGLEWVSAISGSGGSTYYADSVKGRFTISRDNSKNTLYLQMNSLRAEDTAVYYCAEPSHFDRPFDYWGQGTLVTVSS
Response: f

Request: Lab note: confirm whether the reported Kd for this binder is below 0.5 nM, equality not counting. binder: PEP2-247-2 Fc (Fc fusion, Standard format dAb-Fc with human type IgG1 Fc subtype; also called 2-247-2 (PEP-Fc); 2-2-1/2-47-1 CDR crossover; not shown: human IgG1 Fc) EVQLLESGGGLVQPGGSLRLSCAASGFTFRNHDMGWVRQAPGKGLEWVSAISGSGGSTYYANSVKGRFTISRDNSKNTLYLQMNSLRAEDTAVYYCAEPSHFDRPFDYRSQGTLVTVSS
Response: t

Request: Lab note: confirm whether the reported Kd for this binder is below 0.5 nM, equality not counting. binder: PEP2-2-1-1 Fc (Fc fusion, Standard format dAb-Fc with human type IgG1 Fc subtype; also called 2-2-1-1 (PEP-Fc); not shown: human IgG1 Fc) EVQLLESGGGLVQPGGSLRLSCAASGFTFRNHDMGWVRQAPGKGLEWVSAISGSGGSTYYADSVKGRFTISRDNSKNTLYLQMNSLRAEDTAVYYCAEPKPMDTEFDYRSPGTLVTVSS
Response: t

Request: Lab note: confirm whether the reported Kd for this binder is below 0.5 nM, equality not counting. binder: PEP2-247-1 Fc (Fc fusion, Standard format dAb-Fc with human type IgG1 Fc subtype; also called 2-247-1 (PEP-Fc); 2-2/2-47-1 CDR crossover; not shown: human IgG1 Fc) EVQLLESGGGLVQPGGSLRLSCAASGFTFRNHDMGWVRQAPGKGLEWVSAISGSGGGTYYADSVKGRFTISRDNSKNTLYLQMNSLRAEDTAVYYCAEPSHFDRPFDYRSQGTLVTVSS
Response: t

Request: Lab note: confirm whether the reported Kd for this binder is below 0.5 nM, equality not counting. binder: PEP2-42 Fc (Fc fusion, Standard format dAb-Fc with human type IgG1 Fc subtype; also called 2-42 (PEP-Fc); not shown: human IgG1 Fc) EVQLLESGGGLVQPGGSLRLSCAASGFTFDNVEMSWVRQAPGKGLEWVSSIGSKGEDTYYADSVKGRFTISRDNSKNTLYLQMNSLRAEDTAVYYCAQTVNVPEPAFAYWGQGTLVTVSS
Response: f

Request: Lab note: confirm whether the reported Kd for this binder is below 0.5 nM, equality not counting. binder: PEP2-472-1 Fc (Fc fusion, Standard format dAb-Fc with human type IgG1 Fc subtype; also called 2-47-1/2-2-2 CDR crossover; not shown: human IgG1 Fc) EVQLLESGGGLVQPGGSLRLSCAASGYTFPMKDMGWVRQAPGKGLEWVSAISGSGGGTYYADSVKGRFTISRDNSKNTLYLQMNSLRAEDTAVYYCAEPKPMDTEFDYRSQGTLVTVSS
Response: t
